Each entry below lists one item and its recorded MIC, Macrodilution value.
Tested on: S. parasitica T-1
Assay Protocol: Broth macrodilution susceptibility testing (zoospores and cysts)
Assay type: cell-based, Saprolegnia parasitica
Measurement Context: S. parasitica T-1; 24 h, 15-20° C.; geometric mean of three tests

1) CCCCCCCCCCCCCCCC[N+](C)(C)C.[Br-] [CTAB]	5 mg/L
2) [Cl-].[Na+] [Sodium chloride]	30,000 mg/L
3) O=S(=O)([O-])c1cc(Nc2nc(Nc3ccccc3)nc(N(CCO)CCO)n2)ccc1C=Cc1ccc(Nc2nc(Nc3ccccc3)nc(N(CCO)CCO)n2)cc1S(=O)(=O)[O-].[K+].[Na+] [Blankophor® BA]	100 mg/L

Alright, here's another compound for you.
Input: Identify the reported MIC, Macrodilution for the following entry. O=C([O-])[O-].O=C([O-])[O-].OO.OO.OO.[Na+].[Na+].[Na+].[Na+] [Sodium percarbonate]
Output: 5 mg/L
